These measurements were taken from patent US4352818A.

Tested on: activity of the diazepam in the pentetrazole test
Assay: antagonism of diazepam in the pentetrazole test
Assay type: in vivo
Conditions: Mus musculus, po; counteracts the diazepam effect in 50% of the animals; diazepam 5 mg/kg i.p. 1 hour before, test compound p.o. 15 minutes before pentetrazole 120 mg/kg i.p.; mice
Task for the reader: assign each of the following molecules its reported log10(ED50).
// units: mg/kg (pre-log); metric: ED50; scale: log10

Report log10(ED50) for CN1Cc2c([N+](=O)[O-])ncn2-c2ccccc2C1=O tested on activity of the diazepam in the pentetrazole test.
0.60

Report log10(ED50) for O=C1c2ccccc2-n2cnc(Cl)c2[C@@H]2CCCN12 [(a) H H Cl --(CH2)3 -- O (S)] tested on activity of the diazepam in the pentetrazole test.
0.90

Report log10(ED50) for CN1Cc2c(Cl)ncn2-c2cccc(Cl)c2C1=O tested on activity of the diazepam in the pentetrazole test.
-0.05

Report log10(ED50) for O=C1c2c(Cl)cccc2-n2cnc(Cl)c2C2C=CCN12 (racemic) [(a) H Cl Cl --CH=CH--CH2 -- O (R/S)] tested on activity of the diazepam in the pentetrazole test.
0.00

Report log10(ED50) for CN1Cc2c(Cl)ncn2-c2ccccc2C1=O tested on activity of the diazepam in the pentetrazole test.
0.23

Report log10(ED50) for O=C1c2c(Cl)cccc2-n2cncc2C2C=CCN12 (racemic) [(a) H Cl H --CH=CH--CH2 -- O (R/S)] tested on activity of the diazepam in the pentetrazole test.
1.04

Report log10(ED50) for COCc1ncn2c1CN(C)C(=O)c1ccccc1-2 tested on activity of the diazepam in the pentetrazole test.
0.95

Report log10(ED50) for CN1Cc2c(I)ncn2-c2ccccc2C1=O tested on activity of the diazepam in the pentetrazole test.
0.40

Report log10(ED50) for COCc1ncn2c1CN(C)C(=O)c1c(Cl)cccc1-2 tested on activity of the diazepam in the pentetrazole test.
0.15

Report log10(ED50) for CN1Cc2c(Br)ncn2-c2ccc(F)cc2C1=O tested on activity of the diazepam in the pentetrazole test.
0.85

Report log10(ED50) for CN1Cc2c(Br)ncn2-c2ccccc2C1=O tested on activity of the diazepam in the pentetrazole test.
0.65

Report log10(ED50) for O=C1c2ccccc2-n2cnc(Br)c2[C@@H]2CCCN12 [(a) H H Br --(CH2)3 -- O (S)] tested on activity of the diazepam in the pentetrazole test.
1.00

Report log10(ED50) for CN1Cc2c(Cl)ncn2-c2ccccc2C1=S tested on activity of the diazepam in the pentetrazole test.
1.02

Report log10(ED50) for CN1Cc2c(Cl)ncn2-c2ccc(F)cc2C1=O tested on activity of the diazepam in the pentetrazole test.
0.36

Report log10(ED50) for O=C1c2sccc2-n2cnc(Cl)c2[C@@H]2CCCN12 [(b) -- -- Cl --(CH2)3 -- O (S)] tested on activity of the diazepam in the pentetrazole test.
-0.08

Report log10(ED50) for CN1Cc2cncn2-c2cccc(Cl)c2C1=O tested on activity of the diazepam in the pentetrazole test.
0.79

* * *

Target: central benzodiazepine receptors
Test: inhibition of the binding of tritiated diazepam at the specific benzodiazepine receptors in the cerebral cortex
Conditions: 50 percent inhibition of the specific binding of the tritiated diazepam
VALUE KIND: pIC50
The meaning of pIC50 here: minus log10 of the concentration in molar units.

Report pIC50 for CN1Cc2c(Br)ncn2-c2ccc(F)cc2C1=O [(a) F H Br H --CH3 O --] tested on central benzodiazepine receptors.
7.29

Report pIC50 for COCc1ncn2c1CN(C)C(=O)c1c(Cl)cccc1-2 [(a) H Cl --CH2 OCH3 H --CH3 O --] tested on central benzodiazepine receptors.
7.52

Report pIC50 for O=C1c2c(Cl)cccc2-n2cncc2C2C=CCN12 (racemic) [(a) H Cl H --CH=CH--CH2 -- O (R/S)] tested on central benzodiazepine receptors.
6.62

Report pIC50 for O=C1c2ccccc2-n2cnc(Cl)c2[C@@H]2CCCN12 [(a) H H Cl --(CH2)3 -- O (S)] tested on central benzodiazepine receptors.
6.92

Report pIC50 for CN1Cc2c(I)ncn2-c2ccccc2C1=O [(a) H H J H --CH3 O --] tested on central benzodiazepine receptors.
7.64

Report pIC50 for O=C1c2ccccc2-n2cnc(Br)c2[C@@H]2CCCN12 [(a) H H Br --(CH2)3 -- O (S)] tested on central benzodiazepine receptors.
7.32

Report pIC50 for CN1Cc2c([N+](=O)[O-])ncn2-c2ccccc2C1=O [(a) H H --NO2 H --CH3 O --] tested on central benzodiazepine receptors.
7.14

Report pIC50 for CN1Cc2c(Cl)ncn2-c2cccc(Cl)c2C1=O [(a) H Cl Cl H --CH3 O --] tested on central benzodiazepine receptors.
8.44

Report pIC50 for CN1Cc2c(Cl)ncn2-c2ccccc2C1=O [(a) H H Cl H --CH3 O --] tested on central benzodiazepine receptors.
7.00

Report pIC50 for COCc1ncn2c1CN(C)C(=O)c1ccccc1-2 [(a) H H --CH2 OCH3 H --CH3 O --] tested on central benzodiazepine receptors.
6.42

Report pIC50 for CN1Cc2c(Cl)ncn2-c2ccccc2C1=S [(a) H H Cl H --CH3 S --] tested on central benzodiazepine receptors.
6.60

Report pIC50 for O=C1c2sccc2-n2cnc(Cl)c2[C@@H]2CCCN12 [(b) -- -- Cl --(CH2)3 -- O (S)] tested on central benzodiazepine receptors.
7.77
